System: MS2 coat protein
assay_comment: apparent KD of MS2 coat protein; designed switch direction (-1 OFF switch, 1 ON switch): -1; higher = weaker reporter binding
protocol_conditions: Eterna round: R95; input ligand: FMN 200 uM
result_type: apparent KD of MS2 coat protein (nM)
Express the result in nM but write the number alone.

Worked cases, apparent KD of MS2 coat protein given:
input_sequence | measured_target | reported
AUGAGGUUAGGAUAUACAUGAGGAUCACCCAUGUUGAAAGGUUAGAUAGGAGAAGAUAGUAGAAGGAACAAAGA [JR_Exclu3_Sub053] (puzzle: Exclusion 3) | MS2 coat protein | 31.8
AAGAUGAGACAGGAUAUCCACAAAAUCUUGUCAGGAGAAGGGUCUACAUGAGGAUCACCCAUGUGAUUCUUGAA [Inriinvele] (puzzle: Exclusion 6) | MS2 coat protein | 19.1
GACCAACGGGUUUACCUUUACAUGAGGAUCACCCAUGUCGCAAGCUUUUUCUCGGGUCCAAUCUUAUAAAUAUUAAU [Legedi] (puzzle: Sensor v3, turn-off variant 1) | MS2 coat protein | 144
AGUACUAACACGAAAGUGUUAGUACAAUAAGCUAGUGGAACAUGAGGAUCACCCAUGUCCUCAUUAGCUCGUCUUAU [Mat - Sensor v3 - Turn-off var 2 - D33] (puzzle: Sensor v3, turn-off variant 2) | MS2 coat protein | 16.3
CAUACUGAAGUUAGGAUAUGCGGCCGAAUACGGAUGUAGAAGGGACAUGAGGAUCACCCAUGUAGAUAGUAAAG [EX-4 Malc #15] (puzzle: Brourd's mod of Exclusion 4) | MS2 coat protein | 20.8
UAGAAGCUCAGGGAGUGAGACAUGAGGAUCACCCAUGUGGUGGUAGGGAACAAGCUUUUUGCACGUACUUAUGAGGA [JR_SV3TOV1_Sub006] (puzzle: Sensor v3, turn-off variant 1) | MS2 coat protein | 367
GGCGGUGCAGGAUAUUGAAAACUACACAUGAGGAUCACCCAUGUUCCUCACCGGUACAAGCAAGAAGGGCGGUGCA [Erxegetiis] (puzzle: Exclusion 5) | MS2 coat protein | 18.9
GGUUGACAUGAGGAUCACCCAUGUGAGGAUAUGCGAGAGAAAAAAGUGAGGAAGUUAAGCAGAAGGCGCUGUCG [salish99-ex1_r3_005] (puzzle: Exclusion 1) | MS2 coat protein | 89.5

Q. What measured apparent KD of MS2 coat protein goes with AAGAAACAUGAGGAUCACCCAUGUGAGGAUAUGAAAAAUAAAAGAAAAGAAAUAAUAAUCAGAAGGCACAAAGG [Mat - Mod of Hog D9] (puzzle: Exclusion 1) ?
A. 43

Q. Same for GACUGAAUUUUGUUUGGUUACAUGAGGAUCACCCAUGUUGGUCUAAGAACAUGUCUUUUGUACGCUUGUCUUAUAUA [JR_SV3TOV1_Sub069] (puzzle: Sensor v3, turn-off variant 1)
A. 68.9

Q. Same for UUUUUCAUCUAUGGGAGUGACAUGAGGAUCACCCAUGUGUGUCUUGUUUUUUGUUCGUCUAAGACUUUCUGAUCAGU [JR_SV3TOV1_Sub032] (puzzle: Sensor v3, turn-off variant 1)
A. 128

Q. Same for AAGAAACAUGAGGAUCACCCAUGUGAGGAUAUGACGAAGAAAAGAAAAGAAAGAAGACUCAGAAGGCACAAAGG [salish99-ex1_r3_076] (puzzle: Exclusion 1)
A. 48

Q. Same for AGAGAGUCAGGAUAUCGAAGGUAGAGAAAAGGAGAGUGGUACGAGAAGGGACAUGAGGAUCACCCAUGUAGGUG [JR_Exclusion4)Sub013] (puzzle: Exclusion 4)
A. 343

Q. Same for AUGAGGUUAGGAUAUACAUGAGGAUCACCCAUGUUGGAGAAGGAAGUGUAAGUAGCGAGUAGAAGGAACGGAGC [JR_Exclu3_Sub060] (puzzle: Exclusion 3)
A. 37.5
